TGT: rat orexin 1 receptor (Rattus norvegicus, UniProt P56718)
EXPERIMENTAL_PROTOCOL: Rat orexin 1 receptor radioligand binding (competitive, [3H]-SB674042, HEK293 cell preparations)
PARTICULARS: rOX1 Ki (nm)
Decision: Ki beneath 300 nM gives yes; Ki meeting or exceeding 300 nM gives no.

Check out these entries, answers already filled in.
>  <COMPOUND>
O=C(c1ccccc1-n1nccn1)N1C2CCC1C(Nc1nc3cc(Cl)ccc3o1)C2 (racemic)

>  <CLASS_LABEL>
yes

$$$$
>  <COMPOUND>
O=C(c1ccccc1-n1nccn1)N1C2CCC1C(Nc1ccc(C(F)(F)F)cn1)C2 (racemic)

>  <CLASS_LABEL>
yes

$$$$

Quick check: Ki of Cc1ccc(-c2ncccn2)c(C(=O)N2C3CCC2C(Nc2ccc(Br)cn2)C3)n1 (racemic) under 300 nM?
yes

For this compound, is Ki lower than 300 nM? Cc1ccc(-n2nccn2)c(C(=O)N2C3CCC2C(COc2ncccc2C)C3)n1 (racemic)
yes

###

TGT: rat orexin 1 receptor (Rattus norvegicus)
EXPERIMENTAL_PROTOCOL: Rat orexin 1 receptor radioligand binding (competitive, [3H]-SB674042, HEK293 cell preparations)
PARTICULARS: rat orexin 1 receptor, [3H]-SB674042 competition binding; read-out: rOX1 Ki (nm)
READOUT_TYPE: pKi
Just the number, please; pKi means minus log10 of the concentration in mol/L.

// pKi value for COc1c(F)cccc1C(=O)N1C2CCC1C(Nc1ccc(C(F)(F)F)cn1)C2 (racemic) : 5.54

Entry `Cc1ccc(C(=O)N2[C@@H]3CC[C@H]2[C@H](Nc2cnc(C(F)(F)F)cn2)C3)c(-n2ccnn2)n1` ; pKi = 6.82

The compound identified as Cc1cc(C)nc(NC2CC3CCC2N3C(=O)c2ccccc2-n2nccn2)n1 (racemic) registered its pKi at 6.12

Entry Cn1ncc(C(=O)N2C3CCC2C(COc2ccccn2)C3)c1-c1ccccc1 (racemic) ; pKi = 5.59

Noted for Cc1ccn2c(C)cnc2c1C(=O)N1C2CCC1C(COc1ccccn1)C2 (racemic) : its pKi reads 5.62

Please fill in: pKi reported for CCOc1ccc(C)nc1C(=O)N1C2CCC1C(COc1ccc(F)cn1)C2 (racemic) = 6.36

The compound listed as Cc1ccc(N2CCCC2)c(C(=O)N2C3CCC2C(COc2ccc(F)cn2)C3)n1 (racemic) has a reported pKi of 7.57

Field pKi (entry `Cc1coc(-c2ccc(C)nc2C(=O)N2[C@@H]3CC[C@H]2[C@H](COc2ccccn2)C3)n1` ) reads 6.02

Looking up CCOc1ccnc(Cl)c1C(=O)N1C2CCC1C(COc1ccccn1)C2 (racemic) , I found its pKi recorded as 5.07

The compound identified as `O=C(c1cncc2ccccc12)N1[C@@H]2CC[C@H]1[C@H](Nc1cnc(C(F)(F)F)cn1)C2` registered its pKi at 6.40

Briefly, pKi measured for CCOc1ccc(C)nc1C(=O)N1C2CCC1C(Nc1cnc3ccccc3n1)C2 (single isomer, unassigned) [Example 207] : 6.92

Given item `COc1ccc(C(=O)N2[C@@H]3CC[C@H]2[C@H](Nc2cnc(C(F)(F)F)cn2)C3)c(-n2nccn2)c1` , the value recorded as its pKi is 6.87

Sure, the documented pKi for `Cn1c(C(=O)N2[C@@H]3CC[C@H]2[C@H](Nc2cnc(C(F)(F)F)cn2)C3)nc2ccccc21` is 6.28

Please fill in: pKi reported for Cc1ccc(-c2ncccn2)c(C(=O)N2C3CCC2C(COc2ccc(F)cn2)C3)c1 (racemic) = 7.82

###

TGT: rat orexin 1 receptor (Rattus norvegicus)
EXPERIMENTAL_PROTOCOL: Rat orexin 1 receptor radioligand binding (competitive, [3H]-SB674042, HEK293 cell preparations)
PARTICULARS: read-out: rOX1 Ki (nm)
READOUT_TYPE: Ki (nM)
// units = nM; emit number, no label

Worked examples follow.
>  <MOLECULE>
COc1ccc(C(=O)N2[C@@H]3CC[C@H]2[C@H](Nc2cnc(C(F)(F)F)cn2)C3)c(-c2ncccn2)c1

>  <UNIT_NAME>
nM

>  <Ki>
57

$$$$
>  <MOLECULE>
COc1cccc(-n2nccn2)c1C(=O)N1[C@@H]2CC[C@H]1[C@H](Nc1cnc(C(F)(F)F)cn1)C2

>  <UNIT_NAME>
nM

>  <Ki>
31

$$$$
>  <MOLECULE>
O=C(c1cccc(F)c1-c1ncccn1)N1[C@@H]2CC[C@H]1[C@H](Nc1cnc(C(F)(F)F)cn1)C2

>  <UNIT_NAME>
nM

>  <Ki>
16

$$$$

In plain terms, Cc1ccc(-n2nccn2)c(C(=O)N2C3CCC2C(COc2ncccc2C)C3)n1 (racemic) has a documented Ki of 119

// `O=C(c1ccc(F)cc1-c1ncccn1)N1[C@@H]2CC[C@H]1[C@H](Nc1cnc(C(F)(F)F)cn1)C2` : Ki value = 33

In plain terms, `O=C(c1ccc(F)cc1-c1ncccn1)N1[C@@H]2CC[C@H]1[C@H](Nc1ccc(C(F)(F)F)cn1)C2` has a documented Ki of 39

Lab note: measured Ki of `Cc1cccc(C(=O)N2[C@@H]3CC[C@H]2[C@H](Nc2ncc(C(F)(F)F)cn2)C3)c1-n1nccn1` was 21

The recorded Ki for entry `O=C(c1cccc(F)c1-c1ncccn1)N1[C@@H]2CC[C@H]1[C@H](Nc1ncc(C(F)(F)F)cn1)C2` equals 41

Query `O=C(c1ncccc1-n1nccn1)N1[C@@H]2CC[C@H]1[C@H](Nc1cnc(C(F)(F)F)cn1)C2` yields Ki of 94

`O=C(c1cccc(F)c1-c1ncco1)N1[C@@H]2CC[C@H]1[C@H](Nc1cnc(C(F)(F)F)cn1)C2` yielded Ki of 14

Reported Ki ( `O=C(c1cccc(F)c1-c1ncco1)N1[C@@H]2CC[C@H]1[C@H](Nc1ncc(C(F)(F)F)cn1)C2` ) = 29

###

TGT: human orexin 2 receptor (Homo sapiens (Human))
EXPERIMENTAL_PROTOCOL: Human orexin 2 receptor radioligand binding (competitive, [3H]-EMPA, HEK293 cell preparations)
PARTICULARS: human orexin 2 receptor, [3H]-EMPA competition binding; read-out: hOX2 Ki (nm)
1 if Ki is below 4 µM. -1 if not; exact matches included in -1.

# example entries with known answers
>  <MOLECULE>
Cc1ccn2ccnc2c1C(=O)N1C2CCC1C(COc1ccccn1)C2 (racemic)

>  <CLASS_LABEL>
-1

$$$$
>  <MOLECULE>
Cc1cc(C)nc(OCC2CC3CCC2N3C(=O)c2cc(F)ccc2-c2ncccn2)n1 (racemic)

>  <CLASS_LABEL>
1

$$$$

Could you now consider this next molecule?
Please check: Ki for COc1c(F)cccc1C(=O)N1C2CCC1C(Nc1nc(C)cc(C)n1)C2 (stereo not shown) , strictly under 4 µM or not?
-1

###

TGT: human orexin 2 receptor (Homo sapiens (Human), UniProt O43614)
Sequence (O43614 whole entry): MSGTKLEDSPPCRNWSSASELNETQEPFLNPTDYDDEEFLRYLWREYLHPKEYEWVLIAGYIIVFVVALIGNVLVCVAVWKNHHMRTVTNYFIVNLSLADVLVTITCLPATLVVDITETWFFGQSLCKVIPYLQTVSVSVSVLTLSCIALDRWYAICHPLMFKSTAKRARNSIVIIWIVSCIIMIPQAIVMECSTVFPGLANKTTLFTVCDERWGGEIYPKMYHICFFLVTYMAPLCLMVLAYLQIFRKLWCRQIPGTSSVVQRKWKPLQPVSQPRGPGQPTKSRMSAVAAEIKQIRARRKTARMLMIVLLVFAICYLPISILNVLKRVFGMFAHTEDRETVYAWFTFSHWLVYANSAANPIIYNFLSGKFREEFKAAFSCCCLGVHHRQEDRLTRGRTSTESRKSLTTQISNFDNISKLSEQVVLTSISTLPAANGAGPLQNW
EXPERIMENTAL_PROTOCOL: Human orexin 2 receptor radioligand binding (competitive, [3H]-EMPA, HEK293 cell preparations)
PARTICULARS: human orexin 2 receptor, [3H]-EMPA competition binding; read-out: hOX2 Ki (nm)
fulfilled if Ki is below 400 nM. not fulfilled if not; exact matches included in not fulfilled.

>  <COMPOUND>
CCOc1ccc2ccccc2c1C(=O)N1[C@@H]2CC[C@H]1[C@H](Nc1cnc(C(F)(F)F)cn1)C2

>  <CLASS_LABEL>
not fulfilled

$$$$
>  <COMPOUND>
COc1c(F)cccc1C(=O)N1C2CCC1C(Nc1ccc(C(F)(F)F)cn1)C2 (racemic)

>  <CLASS_LABEL>
not fulfilled

$$$$
>  <COMPOUND>
Cc1ccc(-n2nccn2)c(C(=O)N2C3CCC2C(COc2nc(C)cnc2C)C3)c1 (racemic)

>  <CLASS_LABEL>
fulfilled

$$$$
>  <COMPOUND>
Cc1cccc(OCC2CC3CCC2N3C(=O)c2ccccc2-c2nc(C)no2)n1 (racemic)

>  <CLASS_LABEL>
fulfilled

$$$$

A record lists Cc1ccc(-c2nc(C)no2)c(C(=O)N2C3CCC2C(COc2ccc(F)cn2)C3)n1 (racemic) . Is its Ki below 400 nM?
not fulfilled

Ki under 400 nM? Item: `CCOc1ccc2cccnc2c1C(=O)N1[C@@H]2CC[C@H]1[C@H](Nc1cnc(C(F)(F)F)cn1)C2`
not fulfilled

Hi there! Is Ki for `COc1ccc(C(=O)N2[C@@H]3CC[C@H]2[C@H](Nc2cnc(C(F)(F)F)cn2)C3)c(-n2nccn2)c1` below 400 nM, do you know?
not fulfilled

###

TGT: human orexin 2 receptor (Homo sapiens (Human), UniProt O43614)
EXPERIMENTAL_PROTOCOL: Human orexin 2 receptor radioligand binding (competitive, [3H]-EMPA, HEK293 cell preparations)
PARTICULARS: human orexin 2 receptor, [3H]-EMPA competition binding; read-out: hOX2 Ki (nm)
READOUT_TYPE: Ki (nM)
Numbers only here, please. The scale is nM.

Past entries and their recorded results:
>  <COMPOUND>
COc1cccc(-n2nccn2)c1C(=O)N1C2CCC1C(COc1ccc(F)cn1)C2 (racemic)

>  <Ki / nM>
12

$$$$
>  <COMPOUND>
Cc1ccc(-n2cccn2)c(C(=O)N2C3CCC2C(COc2ccccn2)C3)n1 (racemic)

>  <Ki / nM>
3700

$$$$
>  <COMPOUND>
Cc1cccc(C(=O)N2[C@@H]3CC[C@H]2[C@H](Nc2ccc(C(F)(F)F)cn2)C3)c1-n1nccn1

>  <Ki / nM>
257

$$$$
>  <COMPOUND>
COc1ccc(-n2nccn2)c(C(=O)N2[C@@H]3CC[C@H]2[C@H](Nc2cnc(C(F)(F)F)cn2)C3)c1

>  <Ki / nM>
265

$$$$
>  <COMPOUND>
O=C(c1cccc(F)c1-n1nccn1)N1C2CCC1C(COc1cnc3ccccc3n1)C2 (racemic)

>  <Ki / nM>
990

$$$$
>  <COMPOUND>
O=C(c1cccc(F)c1-c1ncccn1)N1[C@@H]2CC[C@H]1[C@H](Nc1nccn3c(C(F)(F)F)nnc13)C2

>  <Ki / nM>
2560

$$$$

According to the records, this compound Cc1cnn(-c2ccc(C)nc2C(=O)N2C3CCC2C(COc2ccccn2)C3)c1 (racemic) displays Ki of 950

// Cc1coc(-c2ccc(C)nc2C(=O)N2C3CCC2C(COc2ccc(F)cn2)C3)n1 (racemic) : Ki value = 4000

Reference source for all entries: patent US9062078B2
